Biological target: T1, human ANGPTL8 expressed with C-terminal mouse IgG2a Fc tag (hANGPTL8-mFc; SEQ ID NO: 340) (human)
T1 construct: also called Angiopoietin-like protein 8
T1 chain: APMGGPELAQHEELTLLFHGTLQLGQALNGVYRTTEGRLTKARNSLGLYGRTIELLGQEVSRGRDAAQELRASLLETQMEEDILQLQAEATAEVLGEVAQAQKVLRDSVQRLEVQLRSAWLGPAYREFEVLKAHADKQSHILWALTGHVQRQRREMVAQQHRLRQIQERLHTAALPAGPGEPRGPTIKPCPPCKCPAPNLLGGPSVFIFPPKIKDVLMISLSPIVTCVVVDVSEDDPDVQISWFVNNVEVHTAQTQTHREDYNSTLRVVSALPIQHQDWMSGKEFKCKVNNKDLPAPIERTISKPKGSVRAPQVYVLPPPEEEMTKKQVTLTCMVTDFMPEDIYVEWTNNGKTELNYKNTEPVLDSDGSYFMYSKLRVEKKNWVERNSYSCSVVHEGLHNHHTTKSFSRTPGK
Test: BLI Octet, captured antigen, 100 nM mAb, 25C

binder	mAb Binding Response (nm)
H4H15347P (antibody, human IgG4, V domains shown, H4H prefix: human IgG4 Fc) VH: EVQLVESGGGLVQPGGSLRLSCAASGFTFRNYAMNWARQAPGKGLEWVSGITGSGGATYYADSVKGRFTISRENSKNTLFLQMDTLRAEDTAVYYCAKDRRYFPTSGGPQWGQGTLVTVSS VL: DIVMTQSPLSLPVTPGEPASISCRSSRSLLHSSGYNYLDWYLQKPGQSPQLLLYLGSNRASGVPDRFSGSGSGTYFTLKISRVDAEDVGVYYCMQALQTPWTFGQGTKVEIK	0.25
H4H15346P (antibody, human IgG4, V domains shown, H4H prefix: human IgG4 Fc) VH: EVQLVESGGGLVQPGGSLRLSCAASGFTFSNYAMSWVRQAPGKGLEWVSTISDTGGSTYYADSVKGRFALSRDNSRNTLYLQMNSLRAEDTAVYYCAKEGPPDYWGQGTLVTVSS VL: EIVLTQSPATLSLSPGERATLSCRTSQSVSIYLAWYQQKPGQAPRLLIYDASKRATGIPARFSGRGSGTDFTLTISSLEPEDFAVYYCQQRSNWPLTFGQGTRLEIK	0.07
H4H15341P (antibody, human IgG4, V domains shown, H4H prefix: human IgG4 Fc) VH: EVQLVESGGGLVQPGGSLRLSCAASGFTFNNHEMNWVRQAPGKGLEWVSYISSSGNTVTYADFLKGRFTISRDNAKNSLFLQMNSLRDEDTAVYYCARDHLSGTSPLSYWGQGTLVTVSS VL: DIQMTQSPSSLSASVGDRVTITCQASQDINNYLNWFQQKPGKAPKLLIFDASNLETGVPSRFSGSGSGTDFTFTISSLQPEDIATYFCQQYENLPYTFGQGTKLEIK	0.12
H4H15335P (antibody, human IgG4, V domains shown, H4H prefix: human IgG4 Fc) VH: QVQLVESGGGVVQPGRSLRLSCAASGFTFNNYGIHWVRQAPGKGLEWVAVISYDESNKYYADSVKGRFTISRDNSKNTLYLQMNSLRAEDTAVYYCAKDIRIAARRHYYYYGMDVWGQGTTVTVSS VL: DIQMTQSPSSVSASVGDRVTITCRASQGISRWLAWYQQKPGKAPKLLIYAASSLESGVPARFSGSGSGTDFTLTISSLQPEDFATYYCQQANSFPITFGPGTKVDIK	0.06
H4H15343P (antibody, human IgG4, V domains shown, H4H prefix: human IgG4 Fc) VH: QVQLVESGGGVVQPGRSLRLSCAASGFTFSSYGMHWVRQAPGKGLEWVAVISYAGSNKYYADSVKGRFTISRDNSKNTLYLQMNGLRAEDTAVYYCAKDPYGDYEGVLDYWGQGTLVTVSS VL: DIQMTQSPSSLSASVGDRVTITCQASQDISNYLNWYQQKPGKAPKLLIYDASNLETGVPSRFSGSGSGTDFTFTISSLQPEDIATYYCQQYDHLPITFGQGTRLEIK	0.17
